Where these numbers come from: PubChem BioAssay

# Test system: Noggin (protein binding on small-molecule microarray)
# protocol.text: small molecules binding Noggin protein – biochemical, 635/667 nm fluorescence, primary screen (AID 1095);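 further: score merges 667 nm feature fluorescence with signal to noise over triplicate slides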
# study.conditions: 635 nm fluorescence, higher = more signal
observable: composite z-score
Answer as a number with no unit attached.

Enter composite z-score (test system Noggin (protein binding on small-molecule microarray)) for CN(C)CCCCCCNC(=O)[C@@H]1C[C@@H]2C(=O)NCC(=O)N2[C@@H]1c1cccc(OCCO)c1
1.17

Supply composite z-score measured with Noggin (protein binding on small-molecule microarray) for C=CCN1C(=O)[C@@]2(O[C@@H](CCO)[C@H]([Si](C)(C)c3ccc(OC)cc3)[C@H]2C)c2cc(NC(C)=O)ccc21 .
1.23

Print Noggin (protein binding on small-molecule microarray) composite z-score for O=C1[C@H]2C=C(Br)[C@H](C[C@@H]2OCCOCCO)[C@@]12CO2 .
0.595

Under Noggin (protein binding on small-molecule microarray): report composite z-score of COc1ccc(C(=O)Nc2cccc(CN3C(=O)[C@@]4(O[C@@H](CC(=O)N5Cc6ccccc6C[C@H]5CO)[C@H]([Si](C)(C)c5ccc(OC)cc5)[C@H]4C)c4ccccc43)c2)cc1 .
1.25

----------
# Test system: Noggin (protein binding on small-molecule microarray)
# protocol.text: small molecules binding Noggin protein – biochemical, 635/667 nm fluorescence, primary screen (AID 1095);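 further: score merges 667 nm feature fluorescence with signal to noise over triplicate slides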
# study.conditions: 635 nm fluorescence, higher = more signal
observable: composite z-score
# print the numeric value only

Find the measured composite z-score of CCCCCCCCCCC(O)C1C=CC2C(=O)N(c3ccccc3)C(=O)C2N1Nc1ccc([N+](=O)[O-])cc1 (centres undefined) and report it.
0.186

State, in one line, measured composite z-score of C/C=C/[C@H](CCn1cc([C@H](O)c2ccccc2)nn1)[Si](C)(C)c1ccc(OC)cc1
-0.953

Consider the compound COc1c(C)cc(-c2cc3c(c(-c4ccccc4)n2)[Si](C(C)C)(C(C)C)O[C@H]3c2ccccc2)cc1C and give its recorded composite z-score.
0.37

Tell us which composite z-score value is on record for CC[C@@H]1C=C(C(=O)O)[C@H](c2ccc(C(C)C)cc2)N1S(=O)(=O)c1ccc(C)cc1
-0.0177

----------
# protocol.text: hepatitis C replication reporter changes, two-sided – Huh7 cells, luciferase reporter, HCV replication inhibitor project, primary screen (AID 1109);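 further: huh7 hepatoma cells harbouring a luciferase neomycin HCV replicon reporter; luciferase luminescence as measure of HCV replicon replication; test concentration not given here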
# study.conditions: Huh7 HCV replicon luciferase reporter, 48 h; higher = more signal
Decision: z-score compared against -0.7; not below it gives yes (1), below it gives no (0).

For this compound, is measured z-score -0.7 or higher? CCOC(=O)C1=CC[C@@H](c2ccccc2)N(S(=O)(=O)c2ccc(C)cc2)[C@H]1c1ccc(C#N)cc1
no (0)

Confirm if z-score reported for the compound O=C1OCCC/C=C\[C@H]2OC34C=CCN(Cn5nnc6ccccc65)C(=O)[C@H]3N(CCCO)C(=O)[C@@H]4C12 (stereo partly specified) is -0.7 or above.
no (0)

Is reported z-score greater than or equal to -0.7 here: O=C1NC(=O)C2C1C=CC(C(O)c1cccs1)N2Nc1ccccn1 (stereo unspecified)
yes (1)

Given C=CCOC(=O)[C@@H]1[C@H]2C(=O)O[C@H](c3ccccc3)[C@H](c3ccccc3)N2[C@H](c2ccc(OCCOC(=O)[C@H]3C[C@H]4C(=O)N[C@@H](CC(C)C)C(=O)N4[C@H]3c3cccc(OCCO)c3)cc2)[C@@]12C(=O)Nc1ccc(I)cc12 , state whether its z-score is at least -0.7.
no (0)

Item COCCOC(=O)N1C(=O)[C@@]2(c3cc(C#CCCO)ccc31)[C@H](c1ccc(O)cc1)N1[C@H](c3ccccc3)[C@H](c3ccccc3)OC(=O)[C@H]1[C@@H]2C(=O)N1CCCCCCC1 with z-score of -0.7 or above?
yes (1)

----------
# protocol.text: plasmodial surface anion channel blockers, osmotic lysis – cell-based, P. falciparum Indochina, OD700, 18 h, primary screen (AID 1157)
# study.conditions: P. falciparum Indochina infected erythrocytes, osmotic lysis OD700, 18 h; higher = more signal, called active from +8 up or from −8 down
observable: z-score
Could you respond with only the numeric value?

Report measured z-score; entry is COCCOC(=O)N1C(=O)[C@@]2(c3ccccc31)[C@H](C(=O)N1CCCCCCC1)[C@H]1C(=O)O[C@H](c3ccccc3)[C@H](c3ccccc3)N1[C@@H]2c1ccccc1OCCO
0.49

Hello, please tell me recorded z-score for this one: OCCCc1cc[n+](Cc2cccc(OC(F)(F)F)c2)cc1
0.916

// Input: C=CCC(OC(C)=O)[C@@H]1[C@@H](N(Cc2ccc(-c3ccccc3)cc2)C(=O)c2ccc(C)cc2)c2cc(OCCCO)ccc2N1C(=O)Cc1ccc(OC)cc1 (some centres not stated) . Output its z-score only.
-1.43

Specify z-score for C=CCCN(CC#C[C@H]1Oc2ccccc2S(=O)(=O)N2CCC[C@@H]12)S(=O)(=O)c1ccc(C)cc1 and stop.
0.182

Note z-score for the molecule shown: COc1ccc([Si](C)(C)[C@H]2[C@H](CC(=O)N(CCO)Cc3ccccc3)O[C@@]3(C(=O)N(Cc4cccc(N5C(=O)c6cccc7cccc5c67)c4)c4ccccc43)[C@@H]2C)cc1
-0.34

Supply reported z-score belonging to this molecule: Cc1ccc(S[C@]2(C(=O)NCCCN(C)C)CC(=O)N(C(C)C)[C@@H]2c2ccc(CO)cc2I)cc1
0.277

Tell us which z-score value is on record for CCN(CC)c1ccc(N2CC=CC34O[C@@H]5C=CCCOC(=O)C5[C@H]3C(=O)N(CCCO)[C@@H]4C2=O)cc1 (some centres not stated)
-1.15

----------
# tested.on: Carbonic anhydrase 2 (Homo sapiens)
# protocol.text: compounds binding carbonic anhydrase 2 – biochemical, small-molecule microarray, Alexa647-labelled CAII, profiling panel (AID 1122)
# study.conditions: CAII-A647 binding fluorescence, higher = more signal
// label = yes (1) if composite z-score is not less than 0.6, otherwise no (0)

Would you say CC(C)C(O)C1C=CC2C(=O)N(C)C(=O)C2N1N1CCCCC1 (stereo not drawn) shows composite z-score at minimum 0.6?
yes (1)

Tell me whether composite z-score is at least 0.6 here: CCOC(=O)C[C@H]1[C@H](OC(=O)c2ccc(C(=O)c3ccccc3)cc2)[C@@H](NC(=O)c2ccc3ccccc3n2)c2cc(OCCCO)ccc2N1C(=O)c1ccc2ccccc2n1
no (0)

Threshold query (composite z-score >= 0.6) on O=C1OCC=C[C@H]2OC34C=CCN(CCN5CCOCC5)C(=O)[C@H]3N(CCCCCCO)C(=O)[C@@H]4[C@@H]12 (stereo partly drawn)
yes (1)

Determine whether this compound has composite z-score no lower than 0.6: O=C(NCC(O)CO)[C@@]1(Cc2ccccc2)COC(c2ccc(OCCCO)cc2)=N1 (stereo partly drawn)
yes (1)

Confirm if composite z-score reported for the compound C=C(CCCC)C(=O)CC[C@H](OC(C)=O)c1ccc(CO)o1 is 0.6 or above.
yes (1)

Is composite z-score at least 0.6? Consider Cc1ccccc1/C=C/C=O
no (0)

Would you say C[N+](C)(C)CCCC[C@@H]1NC(=O)[C@@H]2C[C@H](C(=O)NCCCCCCNC(=O)CS)[C@H](c3cccc(OCCO)c3)N2C1=O shows composite z-score at minimum 0.6?
no (0)

----------
# protocol.text: plasmodial surface anion channel blockers, osmotic lysis – cell-based, P. falciparum Indochina, OD700, 18 h, primary screen (AID 1157)
# study.conditions: P. falciparum Indochina infected erythrocytes, osmotic lysis OD700, 18 h; higher = more signal, called active from +8 up or from −8 down
Label Met when z-score is at or above 0.4; otherwise label Not met.

Is z-score at least 0.4? Consider CC(C)NC(=O)[C@@H]1c2ccccc2C(=O)N(C2CCCCC2)[C@H]1c1ccc(CO)cc1
Not met

Does z-score meet or surpass 0.4 for CC(C)(C)OC(=O)CC[C@@]1(C(=O)N2CCOCC2)N=C(c2ccc(OCCCO)cc2)O[C@@H]1c1ccccc1N=[N+]=[N-] ?
Met

Answer whether z-score of COc1ccc([Si](C)(C)[C@@H]2[C@@H](CCO)O[C@]3(C(=O)N(Cc4cccc(N5CCCCC5=O)c4)c4ccccc43)[C@H]2C)cc1 is greater than or equal to 0.4.
Met

Decide: z-score of C=C[C@@H](C)[C@@H](OC(=O)Nc1ccc(OC)cc1)c1ccc(O)c2ccccc12 >= 0.4?
Not met

For this compound, is measured z-score 0.4 or higher? CN(C)CCCC[C@@H]1NC(=O)[C@@H]2C[C@H](C(=O)NCCCCCN)[C@H](c3ccc(O)cc3)N2C1=O
Not met

For this compound, is measured z-score 0.4 or higher? CCCC[C@@H]1C[C@H]1[C@@H](NC(=O)c1ccccc1)c1ccc(-c2ccccc2)cc1
Met

Assess whether reported z-score for [N-]=[N+]=NCc1ccccc1C[C@]1(C(=O)NCc2ccccc2)COC(c2ccc(OCCCO)cc2)=N1 sits at 0.4 or higher.
Met

Is z-score for C=C(CCCC)/C(=C/C[C@H](OC(C)=O)c1ccc(CO)o1)c1cc(C(=O)OC)ccc1OC at or above 0.4?
Not met
